Entries and their IC50
target under test: purified recombinant HIV-1 RT (Human immunodeficiency virus type 1 group M subtype B)
Construct: purified recombinant HIV-1 RT
assay procedure: cell-free Quan-T-RT RT inhibition assay (scintillation proximity)
Type: biochemical
condition label: purified recombinant HIV-1 RT, cell-free; read-out: IC50 [rRT]
I only need the number, in nM, no unit after it.

structure_smiles_string=Fc1cccc(CCNC(=S)Nc2ccc(Br)cn2)c1 measured_result=700

Now consider a different compound.
In: So what's the measured IC50 for this one? COc1ccc(OC)c(CCNC(=S)Nc2ccc(C(F)(F)F)cn2)c1
Out: 2000

---

Tested on: normal human ectocervical epithelial cells
assay procedure: MTT cell viability assay, ectocervical epithelial cells
Format: cell-based
condition label: 3 h exposure, MTT, read-out: IC50[MTT] ectocervical epithelial cells
Reported IC50 values are given for each entry in this list.
Respond with the bare value in µM.

compound="S=C(NCCC1=CCCCC1)Nc1ccc(Br)cn1 [HI 346]" readout=IC50 measured_result=765

# context switch: different compound, same IC50
In: # lookup: IC50 of S=C(NCCC1=CCCCC1)Nc1ccc(Cl)cn1 [HI 445]
Out: 692
